The measurements presented in this section are drawn from patent US20210253562A1.

# tgt: CHO cells over-expressing the EP3 receptor (Homo sapiens, UniProt P43115)
# Sequence (P43115 1-390): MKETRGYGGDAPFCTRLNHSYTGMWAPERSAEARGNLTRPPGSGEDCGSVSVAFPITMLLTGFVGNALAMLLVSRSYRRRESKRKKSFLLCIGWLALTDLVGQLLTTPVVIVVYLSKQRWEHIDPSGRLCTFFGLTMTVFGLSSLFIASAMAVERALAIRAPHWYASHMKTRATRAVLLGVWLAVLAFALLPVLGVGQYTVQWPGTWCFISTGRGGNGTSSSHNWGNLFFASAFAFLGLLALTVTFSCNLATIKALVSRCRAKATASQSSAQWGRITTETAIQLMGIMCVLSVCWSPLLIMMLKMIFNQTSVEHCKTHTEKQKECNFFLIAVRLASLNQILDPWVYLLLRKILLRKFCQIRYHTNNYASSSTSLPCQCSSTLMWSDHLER
# assay-notes: CHO cell cAMP assay; EP3 cAMP antagonist dose response (sulprostone reference), HTRF
# condition-set: sulprostone 700 nM (EC80) and FSK 2 μM (EC70); read-out: CHO_cAMP IC50
Please go through the items and note down their log10 IC50.
Values are log10 of IC50 in nM.

GET /values?readout=log10 IC50&item= O=C(NC/C(F)=C1\CCCc2cnn(Cc3ccc(Cl)cc3Cl)c21)NS(=O)(=O)c1cc(Cl)c(Cl)s1
0.00

GET /values?readout=log10 IC50&item= O=C(NC/C=C1\CCCc2cnn(Cc3ccc(Cl)cc3Cl)c21)NS(=O)(=O)c1cc2ccccc2o1
1.43

GET /values?readout=log10 IC50&item= O=C(NC/C=C1\CCCn2nnc(-c3ccc(C(F)(F)F)cc3)c21)NS(=O)(=O)c1cc(Cl)c(Cl)s1
0.60

GET /values?readout=log10 IC50&item= O=C(NC/C(F)=C1\COCc2[nH]nc(Cc3ccc(Cl)cc3Cl)c21)NS(=O)(=O)c1cc(Cl)c(Cl)s1
0.70

GET /values?readout=log10 IC50&item= Cn1cc(S(=O)(=O)NC(=O)NC/C=C2\CCCc3cnn(Cc4ccc(Cl)cc4Cl)c32)cn1
0.90

GET /values?readout=log10 IC50&item= COc1ccc(F)cc1S(=O)(=O)NC(=O)NC/C(F)=C1\CCCc2cnn(-c3ccc4ccccc4c3)c21
3.84

GET /values?readout=log10 IC50&item= O=C(NC/C(F)=C1\COCc2cnn(-c3ccc(C(F)(F)F)cc3)c21)NS(=O)(=O)c1cc(Cl)c(Cl)s1
2.36

GET /values?readout=log10 IC50&item= COc1ccc(Cl)cc1S(=O)(=O)NC(=O)NC/C(F)=C1\CCCc2cnn(-c3ccc4ccccc4c3)c21
3.62

GET /values?readout=log10 IC50&item= COc1ccc(F)c(S(=O)(=O)NC(=O)NC/C=C2\COCc3cnn(Cc4ccc(Cl)cc4Cl)c32)c1
1.51

GET /values?readout=log10 IC50&item= O=C(/C=C/C=C1\CCCc2cnn(Cc3ccc(Cl)cc3Cl)c21)NS(=O)(=O)c1cc(Cl)c(Cl)s1
2.04

GET /values?readout=log10 IC50&item= COc1ccc(-n2ncc3c2/C(=C/CNC(=O)NS(=O)(=O)c2ccc(Cl)cc2)CCC3)cn1
2.47

###

# tgt: EP3 membrane (EP3 receptor) (Homo sapiens, UniProt P43115)
# Construct: purchased Millipore HTS092M
# assay-notes: [3H]-PGE2 binding; EP3 competition binding (SPA)
Values of Ki strictly less than 9 nM map to Satisfied, and values of at least 9 nM map to Not satisfied.

Confirm or reject: Ki of Cc1cc(S(=O)(=O)NC(=O)NC/C(F)=C2\CCCc3cnn(Cc4ccc(Cl)cc4Cl)c32)sc1C lies strictly below 9 nM
Satisfied

Confirm or reject: Ki of O=C(NC/C=C1\CCCc2cnn(Cc3ccc(Cl)cc3Cl)c21)NS(=O)(=O)c1cc(F)cc(F)c1 lies strictly below 9 nM
Satisfied

Confirm or reject: Ki of Cc1nn(Cc2ccc(Cl)cc2Cl)c2c1CCC/C2=C(/F)CNC(=O)NS(=O)(=O)c1cc(Cl)c(Cl)s1 lies strictly below 9 nM
Satisfied

Confirm or reject: Ki of O=C(NC/C=C1\CCCc2cnn(Cc3ccc(Cl)cc3Cl)c21)NS(=O)(=O)c1cccs1 lies strictly below 9 nM
Not satisfied

###

# tgt: EP3 membrane (EP3 receptor) (Homo sapiens, UniProt P43115)
# Construct: purchased Millipore HTS092M
# Sequence (P43115 1-390): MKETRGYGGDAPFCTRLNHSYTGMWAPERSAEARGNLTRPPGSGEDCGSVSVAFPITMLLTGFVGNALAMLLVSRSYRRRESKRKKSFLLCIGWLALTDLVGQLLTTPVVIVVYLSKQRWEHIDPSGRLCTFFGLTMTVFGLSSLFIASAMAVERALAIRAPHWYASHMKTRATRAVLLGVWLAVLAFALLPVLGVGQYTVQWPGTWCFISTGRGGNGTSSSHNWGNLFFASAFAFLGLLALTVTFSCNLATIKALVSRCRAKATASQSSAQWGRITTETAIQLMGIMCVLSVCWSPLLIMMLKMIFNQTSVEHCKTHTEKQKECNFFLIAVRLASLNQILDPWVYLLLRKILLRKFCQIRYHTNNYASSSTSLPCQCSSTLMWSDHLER
# assay-notes: [3H]-PGE2 binding; EP3 competition binding (SPA)
readout-name: Ki (nM)
Give the value in nM but do not write nM after it.

GET /values?readout=Ki&item= COc1ccc(S(=O)(=O)NC(=O)NC/C=C2\CCCc3cnn(Cc4ccc(Cl)cc4Cl)c32)cc1
10

GET /values?readout=Ki&item= Cc1cc(S(=O)(=O)NC(=O)NC/C=C2\CCCc3cnn(Cc4ccc(Cl)cc4Cl)c32)n(C)n1
6

GET /values?readout=Ki&item= O=C(NC/C(F)=C1\CCCc2cnn(Cc3ccc(C(F)(F)F)cc3)c21)NS(=O)(=O)c1cc(Cl)c(Cl)s1
7

GET /values?readout=Ki&item= O=C(NC/C=C1\CCCc2cnn(Cc3ccc(Cl)cc3Cl)c21)NS(=O)(=O)c1cc2ccccc2o1
6
